Reported protein stability index values for a set of variants
B1: SLC2A12 (parent)
chain: LTLVFFVQITGQPNILFYASTVLK

variants of: B1; assay: protein stability index of a GFP-peptide fusion (GPS, HEK-293T) (PSI 1-6); higher = more stable; conditions: c terminus: a fixed tail appended;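 also: lentivirally expressed fusions sorted by FACS into six bins by GFP to DsRed ratio, PSI derived from sequencing read proportions per bin multiplied by bin number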
measured_attribute: protein stability index

• L1A = 2.8
• F5S = 1.66
• N14M = 2.01
• T21P = 3.23
• N14C = 1.99
• T10K = 3.77
• T21N = 3.31
• L1H = 2.7
• T10I = 3.61
• L3W = 4.1
• L1C = 2.29
• Q12R = 2.64
• Y18F = 3.63
• K24P = 1.8
• T2N = 3.71
• Q12I = 2.73
• V22F = 2.78
• V7S = 2.3
• L23R = 3.18
• F17K = 3.38
• L3T = 4.46
• S20I = 4.31
